Data origin: patent US20220356255A1

- system tested: T1, biotinylated human PD-L1 (human, UniProt Q9NZQ7 19-239, limits assumed, biotinylated (sites not given))
- T1 construct: Bought from R&D Systems; also called biotinylated-PD-L1; human PD-L1 biotin
- T1 sequence (Q9NZQ7 19-239 limits assumed): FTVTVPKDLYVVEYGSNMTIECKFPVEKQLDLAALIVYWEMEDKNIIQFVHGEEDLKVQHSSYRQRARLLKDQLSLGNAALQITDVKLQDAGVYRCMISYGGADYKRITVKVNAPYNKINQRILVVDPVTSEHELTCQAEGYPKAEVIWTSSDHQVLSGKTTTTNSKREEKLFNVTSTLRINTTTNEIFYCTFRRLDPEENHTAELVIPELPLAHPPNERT
- assay details: competition ELISA, Fab with biotinylated PD-L1 on coated PD-1-Fc, pH 6.5
endpoint: IC50 (nM)

- binder: "Fab 8B06 (Fab, V domains shown, Purified Fab prepared from IgG with the Pierce kit; also called 8B06 Fab) VH: QVQLVQSGGGVVQPGRSLRLSCAASGFTFSSYGMYWVRQAPGKGLEWVAVISYDGSNKYYADSVKGRFTISRDNSKNTLNLQMNSLRAEDTAVYYCAKGALTHWGVVIGDGMDVWGQGTTVTVSS VL: NFMLTQPHSVSESPGKTVTISCRETELSRRLHYVRWYQQRPGSSPTTVIYEDDQRPSGVPDRFSGSIDSSSNSASLTISGLKTEDEADYYCQSFDSTNPWVFGGGTKLTVL"
  endpoint: "IC50"
  units: "nM"
  bound operator: "="
  measured number: 52.7
- binder: "Fab 8G08 (Fab, V domains shown, Purified Fab prepared from IgG with the Pierce kit; also called 8G08 Fab) VH: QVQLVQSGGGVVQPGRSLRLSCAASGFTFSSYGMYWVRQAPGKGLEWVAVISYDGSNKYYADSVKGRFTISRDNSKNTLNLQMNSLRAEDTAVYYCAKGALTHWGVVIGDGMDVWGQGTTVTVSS VL: NFMLTQPHSVSESPGKTVTISCISNDVPASGHYHRWYQQRPGSSPTTVIYEDDQRPSGVPDRFSGSIDSSSNSASLTISGLKTEDEADYYCQSFDSTNPWVFGGGTKLTVL"
  endpoint: "IC50"
  units: "nM"
  bound operator: "="
  measured number: 41.6
- binder: "Fab 8A04 (Fab, V domains shown, Purified Fab prepared from IgG with the Pierce kit; also called 8A04 Fab) VH: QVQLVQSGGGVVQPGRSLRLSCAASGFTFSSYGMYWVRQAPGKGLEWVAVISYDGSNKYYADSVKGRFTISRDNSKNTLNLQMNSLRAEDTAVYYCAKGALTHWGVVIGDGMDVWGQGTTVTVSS VL: NFMLTQPHSVSESPGKTVTISCMRTGTGNKGHYTRWYQQRPGSSPTTVIYEDDQRPSGVPDRFSGSIDSSSNSASLTISGLKTEDEADYYCQSFDSTNPWVFGGGTKLTVL"
  endpoint: "IC50"
  units: "nM"
  bound operator: "="
  measured number: 29.4
- binder: "Fab 8D06 (Fab, V domains shown, Purified Fab prepared from IgG with the Pierce kit; also called 8D06 Fab) VH: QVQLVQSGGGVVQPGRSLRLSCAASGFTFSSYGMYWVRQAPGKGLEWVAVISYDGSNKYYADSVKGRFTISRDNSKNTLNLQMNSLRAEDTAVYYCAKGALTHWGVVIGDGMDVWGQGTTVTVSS VL: NFMLTQPHSVSESPGKTVTISCVLSPRTHAGHYYRWYQQRPGSSPTTVIYEDDQRPSGVPDRFSGSIDSSSNSASLTISGLKTEDEADYYCQSFDSTNPWVFGGGTKLTVL"
  endpoint: "IC50"
  units: "nM"
  bound operator: "="
  measured number: 40
- binder: "Fab 8D04 (Fab, V domains shown, Purified Fab prepared from IgG with the Pierce kit; also called 8D04 Fab) VH: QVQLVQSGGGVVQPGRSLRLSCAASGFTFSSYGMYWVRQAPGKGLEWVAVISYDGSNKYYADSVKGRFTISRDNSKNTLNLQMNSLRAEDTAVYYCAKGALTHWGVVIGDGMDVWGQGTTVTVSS VL: NFMLTQPHSVSESPGKTVTISCRGTGSSFHHKYVRWYQQRPGSSPTTVIYEDDQRPSGVPDRFSGSIDSSSNSASLTISGLKTEDEADYYCQSFDSTNPWVFGGGTKLTVL"
  endpoint: "IC50"
  units: "nM"
  bound operator: ">"
  measured number: 100
